Test system: AncSZ
measurement_description: phosphorylation enrichment, bacterial display (enrichment ratio); higher = better substrate or ligand; peptides without Tyr show the background;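 note: 11-residue human phosphosite peptides and single-mutation variants displayed on the E. coli surface, counted by deep sequencing, each peptide's frequency after selection divided by its frequency in the unselected input library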;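 note: frequency after pTyr selection over input frequency; kinase dosed for 20-30% of maximal phosphorylation in three min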
endpoint: phosphorylation enrichment

# record_sequence, endpoint, result_value
records = [
    ("SEPDLYFDPRG [PKP1_Y160_C161Y_YF]", "phosphorylation enrichment", 2.86),
    ("EGNEQYEGFCV [GRIA3_Y451_R450Q_YF]", "phosphorylation enrichment", 1.29),
    ("FTHSDYQFGQR [PKP2_Y166_S169G_YF]", "phosphorylation enrichment", 0.697),
    ("AEMTGYVMTRW [MAPK13_Y182_V184M]", "phosphorylation enrichment", 1.29),
    ("QAPPIYLDVLG [NTRK1_Y791_V790I]", "phosphorylation enrichment", 1.31),
    ("GFAGKYIAMVM [CYP19A1_Y441_C437Y_YF]", "phosphorylation enrichment", 0.694),
    ("FDDIAYIQKTL [PIK3CA_Y1021_R1023Q]", "phosphorylation enrichment", 0.832),
]

----------
experimental_system: Jak2 (UniProt O60674)
Sequence (O60674 whole entry, looked up): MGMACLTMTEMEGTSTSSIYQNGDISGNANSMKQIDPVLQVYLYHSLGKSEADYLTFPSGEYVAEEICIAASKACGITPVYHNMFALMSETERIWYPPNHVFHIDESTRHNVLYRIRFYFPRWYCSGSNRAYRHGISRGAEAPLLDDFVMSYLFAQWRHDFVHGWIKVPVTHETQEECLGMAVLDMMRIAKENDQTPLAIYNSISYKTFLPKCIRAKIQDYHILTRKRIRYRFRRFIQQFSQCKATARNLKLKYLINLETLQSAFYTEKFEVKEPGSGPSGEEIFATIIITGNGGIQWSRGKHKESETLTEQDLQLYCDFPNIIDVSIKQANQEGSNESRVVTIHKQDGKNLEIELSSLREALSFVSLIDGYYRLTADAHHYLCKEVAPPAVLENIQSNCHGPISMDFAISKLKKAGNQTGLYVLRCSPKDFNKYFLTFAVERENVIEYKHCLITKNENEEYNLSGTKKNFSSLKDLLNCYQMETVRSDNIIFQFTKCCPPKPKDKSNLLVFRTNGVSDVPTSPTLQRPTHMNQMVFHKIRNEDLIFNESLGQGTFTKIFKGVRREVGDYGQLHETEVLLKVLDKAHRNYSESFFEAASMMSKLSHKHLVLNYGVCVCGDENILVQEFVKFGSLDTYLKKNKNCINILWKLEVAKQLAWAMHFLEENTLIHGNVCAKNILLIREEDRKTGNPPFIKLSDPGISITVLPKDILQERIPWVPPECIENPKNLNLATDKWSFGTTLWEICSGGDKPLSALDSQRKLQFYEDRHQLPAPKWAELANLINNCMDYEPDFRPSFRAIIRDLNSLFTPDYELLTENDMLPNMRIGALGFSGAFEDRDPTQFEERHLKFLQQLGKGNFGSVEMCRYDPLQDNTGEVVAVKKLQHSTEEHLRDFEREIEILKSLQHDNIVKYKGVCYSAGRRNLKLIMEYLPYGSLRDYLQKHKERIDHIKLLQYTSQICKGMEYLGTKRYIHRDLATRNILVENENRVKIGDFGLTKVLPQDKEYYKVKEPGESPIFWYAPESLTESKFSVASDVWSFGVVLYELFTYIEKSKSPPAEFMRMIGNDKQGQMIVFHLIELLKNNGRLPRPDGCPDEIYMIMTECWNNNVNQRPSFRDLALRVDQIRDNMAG
measurement_description: phosphorylation enrichment, bacterial display (enrichment ratio); higher = better substrate or ligand; peptides without Tyr show the background
# reported phosphorylation enrichment; entries follow
endpoint: phosphorylation enrichment

# record_sequence, result_value
measured = [
    ("SLVVPYEPPEV [TP53_Y220_V216L]", 1.33),
    ("ILDEAYVMASM [EGFR_Y764_V769M]", 0.965),
    ("STSFDYCRVPM [BST2_Y8_YF]", 2.03),
    ("NTVLGYFIGCI [GARS1_Y408_R412C]", 1.18),
    ("VEDHFYEGGIG [TKT_Y564_YF]", 1.13),
    ("MSNVPYVMNRG [ACAT1_Y161]", 0.572),
    ("KKHIPHREHKS [CSNK1G2_Y206_Y206H]", 5.87),
]

----------
System: Fer (mouse)
measurement_description: phosphorylation enrichment, bacterial display (enrichment ratio); higher = better substrate or ligand; peptides without Tyr show the background
The label depends only on phosphorylation enrichment: rule met if it is at least 0.6, rule not met if it is smaller.

# record_sequence, assigned_label
measured = [
    ("KDQGIYEDYVE [MYL6_Y86_T85I]", "rule met"),
    ("LTPVKYLLSAT [GSDMC_Y26]", "rule not met"),
    ("EQQRAYLEGTC [HLA-C_Y183_L180Q]", "rule not met"),
    ("REGAKYVSHGA [ASS1_Y113]", "rule not met"),
    ("RRIHSYRGHLW [VHL_Y112]", "rule met"),
    ("CTTIPYNYMCN [TP53_Y234_H233P]", "rule not met"),
    ("ERRLIYASDPK [VPS13D_Y864_T865A]", "rule not met"),
    ("FGVVGYLAIMF [RNF175_Y155]", "rule not met"),
    ("NVGGKYSFLKV [GRM3_Y478_YF]", "rule not met"),
    ("EGTATYAAAIL [JUP_Y644_V648I]", "rule met"),
    ("KERNQYGEVMV [MMP21_Y347]", "rule met"),
    ("QGRQTYLLQPA [DDR2_Y813_P815L]", "rule not met"),
    ("NYRPGYNNFYN [USH2A_Y467]", "rule met"),
    ("GPGLVYRVANK [FLNB_Y1833_G1834R]", "rule not met"),
    ("VIEYSYTSADG [DHCR7_Y382_C380Y]", "rule not met"),
    ("QCTSDYPEHVC [SART3_Y541]", "rule met"),
    ("RGKEPYTKKAL [TTC21B_Y160]", "rule not met"),
    ("TLKDVYDDGKY [RPS6KA3_Y483]", "rule not met"),
    ("NPPGMYPVTGP [LPP_Y346]", "rule met"),
    ("WKGSWYSMRKM [FGB_Y475]", "rule not met"),
    ("DNEALYDICFC [TUBB3_Y208_R213C]", "rule met"),
    ("LSSNLYFRWLT [CNGA3_Y168_P163L_YF]", "rule met"),
    ("LHSEAYLKFIE [PBRM1_Y1610_YF]", "rule met"),
    ("VKANTYENYWP [GATM_Y100_K102N]", "rule met"),
    ("RQRTAYFSLNT [CDH1_Y68_D72N]", "rule not met"),
    ("FAELMYTGFWH [ASS1_Y322_V321M]", "rule met"),
    ("YTGDIYSSSNL [LZTR1_Y141_N143S]", "rule met"),
    ("IVFTSYFLTIL [TAS2R16_Y239]", "rule not met"),
    ("DKNSSYFADWL [TUBB8_Y340]", "rule not met"),
]

Measured values drawn from the supplement of paper PMC10065799 for this set.
